# test: Minimum inhibitory concentration against Haemophilus influenzae ATCC 51907
# Type: functional
Reported MIC by item:
Provide the reading as a plain figure in mg/L.

# MIC (compound: O=C1O[C@@H](Cn2cc(Br)nn2)CN1c1ccc(C2=CCS(=O)(=O)CC2)c(F)c1 ) is 2

The compound O=C1O[C@@H](Cn2cc(Cl)nn2)CN1c1ccc(C2=CCS(=O)(=O)CC2)c(F)c1 showed MIC equal to 1

MIC reported for this compound O=C1O[C@@H](Cn2cc(CO)nn2)CN1c1ccc(C2=CCS(=O)(=O)CC2)c(F)c1 : 4
